Give log10 of MED for every item shown.
Molecular target: Human ENaC δ, β and γ subunit (Homo sapiens, UniProt P51168+P51170+P51172)
Construct: expressed in transfected cells; host or cells: Xenopus laevis (African clawed frog) oocytes injected with cRNA
Sequence (P51172 1-802): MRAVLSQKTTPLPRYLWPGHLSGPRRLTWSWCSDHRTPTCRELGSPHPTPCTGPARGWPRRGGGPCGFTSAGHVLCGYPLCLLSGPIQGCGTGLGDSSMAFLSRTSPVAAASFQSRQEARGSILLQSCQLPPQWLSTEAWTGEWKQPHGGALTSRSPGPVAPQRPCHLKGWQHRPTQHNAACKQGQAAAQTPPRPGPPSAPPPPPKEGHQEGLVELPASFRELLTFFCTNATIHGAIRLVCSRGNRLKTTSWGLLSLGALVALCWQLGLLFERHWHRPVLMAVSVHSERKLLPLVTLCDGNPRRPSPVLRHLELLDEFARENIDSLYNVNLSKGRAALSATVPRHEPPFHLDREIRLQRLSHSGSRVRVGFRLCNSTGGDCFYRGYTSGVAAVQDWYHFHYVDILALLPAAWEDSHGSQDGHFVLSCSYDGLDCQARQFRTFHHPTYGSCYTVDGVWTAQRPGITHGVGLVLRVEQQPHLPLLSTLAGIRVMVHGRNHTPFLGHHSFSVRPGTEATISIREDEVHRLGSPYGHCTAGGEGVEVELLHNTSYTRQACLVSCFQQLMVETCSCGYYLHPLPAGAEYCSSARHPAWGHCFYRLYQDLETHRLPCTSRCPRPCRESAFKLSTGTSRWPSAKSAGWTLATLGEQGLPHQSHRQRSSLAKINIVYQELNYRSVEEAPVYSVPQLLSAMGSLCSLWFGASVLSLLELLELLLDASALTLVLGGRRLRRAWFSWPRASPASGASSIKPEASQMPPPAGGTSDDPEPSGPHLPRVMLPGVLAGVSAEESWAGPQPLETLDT
Sequence (P51168 1-640): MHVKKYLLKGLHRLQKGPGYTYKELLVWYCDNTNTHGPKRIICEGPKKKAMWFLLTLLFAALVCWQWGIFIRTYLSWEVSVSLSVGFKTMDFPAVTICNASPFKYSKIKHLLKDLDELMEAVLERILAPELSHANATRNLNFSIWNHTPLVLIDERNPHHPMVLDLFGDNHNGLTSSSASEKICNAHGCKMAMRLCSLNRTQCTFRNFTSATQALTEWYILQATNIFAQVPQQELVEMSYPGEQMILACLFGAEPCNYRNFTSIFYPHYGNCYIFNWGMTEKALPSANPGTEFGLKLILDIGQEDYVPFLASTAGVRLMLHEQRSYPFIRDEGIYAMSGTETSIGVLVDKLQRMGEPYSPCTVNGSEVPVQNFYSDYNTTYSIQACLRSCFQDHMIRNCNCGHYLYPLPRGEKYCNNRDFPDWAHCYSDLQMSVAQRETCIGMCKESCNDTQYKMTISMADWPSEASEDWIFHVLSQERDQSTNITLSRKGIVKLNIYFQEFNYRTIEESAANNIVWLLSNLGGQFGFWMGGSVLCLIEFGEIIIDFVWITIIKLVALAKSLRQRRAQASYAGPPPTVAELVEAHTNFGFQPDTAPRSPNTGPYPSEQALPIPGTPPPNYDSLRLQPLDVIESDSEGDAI
Sequence (P51170 1-649): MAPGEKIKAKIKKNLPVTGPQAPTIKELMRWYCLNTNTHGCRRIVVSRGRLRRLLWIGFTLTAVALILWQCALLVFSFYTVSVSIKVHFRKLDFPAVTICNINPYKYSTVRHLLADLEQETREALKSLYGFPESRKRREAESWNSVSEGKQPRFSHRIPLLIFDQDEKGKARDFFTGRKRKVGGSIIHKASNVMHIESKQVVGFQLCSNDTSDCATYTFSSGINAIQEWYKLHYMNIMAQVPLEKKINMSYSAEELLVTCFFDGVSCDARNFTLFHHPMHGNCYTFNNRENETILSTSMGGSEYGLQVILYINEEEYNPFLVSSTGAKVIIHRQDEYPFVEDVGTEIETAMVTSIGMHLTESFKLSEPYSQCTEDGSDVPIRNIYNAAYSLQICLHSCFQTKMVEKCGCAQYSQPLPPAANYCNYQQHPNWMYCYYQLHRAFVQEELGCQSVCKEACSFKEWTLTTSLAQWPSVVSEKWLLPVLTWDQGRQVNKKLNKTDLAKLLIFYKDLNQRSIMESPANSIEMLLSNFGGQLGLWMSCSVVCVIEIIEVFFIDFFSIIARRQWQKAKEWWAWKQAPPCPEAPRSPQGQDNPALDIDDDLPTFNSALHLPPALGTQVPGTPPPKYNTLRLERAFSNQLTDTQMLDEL
Test: Measurement of ENaC activation potency (MED) in ENaC-expressing oocyte, Two Electrode Voltage Clamp
Format: cell-based
Settings: minimum effective dose at which current started to increase; ENaC-expressing African clawed frog oocyte; smaller MED = higher ENaC activation potency
All values: base-10 log of MED in µM.

- Compound: "O=C(O)c1ccccc1NC(=S)Nc1ccccc1 [Example 39]"
  Value: 0.00
- Compound: "COc1cccc(OC)c1NC(=S)NCCc1c[nH]c2ccc(O)cc12 [Example 126]"
  Value: 1.00
- Compound: "N#Cc1ccc(CNC(=S)NCCc2ccccc2)cc1 [Example 65]"
  Value: 0.52
- Compound: "Oc1ccc(CNC(=S)NCCc2ccccc2)cc1 [Example 43]"
  Value: 0.00
- Compound: "C[C@H](NC(=S)N[C@H](C)c1ccccc1)c1ccccc1 [Example 24]"
  Value: 0.52

Please state log10 of MED for every compound in the list that follows.
1. Oc1cc2c(cc1O)CN(C(=S)NCCc1ccc(Cl)cc1)CC2 [Example 2]
2. O=C(O)c1ccccc1NC(=S)Nc1ccc(Cl)cc1 [Example 117]

[reply]
1. 0.48
2. -0.52

For each entry beneath this line, provide reported log10 of MED.
1. Oc1cccc(CCNC(=S)NCc2ccccc2)c1 [Example 63]
2. Oc1cc2c(cc1O)CN(C(=S)NCCc1ccc(Cl)cc1)CCC2 [capsazepine]
3. COC(CNC(=S)NCc1ccccc1)c1ccccc1 (stereo not drawn) [Example 77]
4. Oc1ccc(CNC(=S)NCCc2ccc(Cl)cc2)cc1O [Example 1]
5. Oc1ccc(CNC(=S)NCc2ccccc2)cc1O [Example 45]

[reply]
0.52
0.48
0.00
0.00
0.48

Batch: log10 of MED for all items listed.
1. COc1cc(CNC(=S)NCCc2ccccc2)cc(OC)c1 [Example 67]
2. CC[C@@H](NC(=S)NCCc1ccccc1O)c1ccccc1 [Example 98]
3. C[C@@H](NC(=S)NCC(O)c1cc(Br)ccc1O)c1cccc(O)c1 (stereo partly drawn) [Example 116]
4. S=C(NCCc1ccccc1)N1Cc2ccccc2C1 [Example 55]

[reply]
1. 1.00
2. 0.00
3. -1.00
4. 1.48

Please state, for each entry, its recorded log10 of MED.
1. CN(Cc1ccc(O)c(O)c1)C(=S)NCCc1ccccc1 [Example 42]
2. S=C(NCCc1ccc(Cl)cc1)NCCc1c[nH]c2ccccc12 [Example 6]
3. CN(CCc1ccccc1O)C(=S)Nc1ccc(O)cc1C(=O)O [Example 124]
4. C[C@@H](NC(=S)Nc1ccccc1C(=O)O)c1cccc(O)c1 [Example 118]
5. COc1ccc(CCNC(=S)NCc2ccccc2)cc1 [Example 16]
6. CN(Cc1ccc(O)c(O)c1)C(=S)NCCc1ccc(Cl)cc1 [Example 5]
7. S=C(NCCc1ccccc1)NCCc1ccccc1 [Example 13]
8. S=C(NCc1ccccc1)NCC(c1ccccc1)c1ccccc1 [Example 59]

[reply]
1. 0.00
2. 1.48
3. -0.52
4. -1.00
5. 0.48
6. 0.00
7. 1.00
8. 1.00

# credit: patent US20140004243A1
